B1: LINE1-full (parent)
chain: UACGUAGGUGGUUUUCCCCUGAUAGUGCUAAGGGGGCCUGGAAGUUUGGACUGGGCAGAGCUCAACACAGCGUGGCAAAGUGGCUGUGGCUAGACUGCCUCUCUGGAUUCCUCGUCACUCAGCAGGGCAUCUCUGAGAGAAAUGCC

# Variants of: B1
# test summary: self-cleavage, relative activity (ratio to wild type); higher = more cleavage; in vitro, sequencing; the parent is a self-cleaving ribozyme
Each record gets a class by self-cleavage: zone 1 = under 0.5, zone 2 = from 0.5 up to 1, zone 3 = 1 and over

Category lookup for the variant C63U U119G
zone 1

Query U5A A69G next
zone 1

Query U14C G75A next
zone 2

Query A31U U102A next
zone 3

Query U13C A92U next
zone 2

Query G72U U85G next
zone 1

Query G21A U81A next
zone 3

Query G72A U134A next
zone 3

Query U13G A31G next
zone 1

Query C28U A141G next
zone 3

Query A43G C110U next
zone 3

Query G41A G125A next
zone 3

Query U62A U73C next
zone 1

Query A59G U112C next
zone 1

Query C99A G114A next
zone 1

Query G137A A138G next
zone 3

Query A57U C128U next
zone 1

Query U1G A30G next
zone 2

Query U26C A140C next
zone 3

Query U14A A42U next
zone 1

Query U62C U87A next
zone 1

Query U45C A124U next
zone 3

Query U52C U91G next
zone 1

Query A59U U62C next
zone 1

Query C19A U62C next
zone 1

Query U46C G80A next
zone 3

Query C76A A141G next
zone 3

Query A42U A142U next
zone 2

Query U15C U23G next
zone 3

Query U108C C118U next
zone 3

Query A50U U119C next
zone 3

Query U46A U115C next
zone 3

Query A65G A121G next
zone 1

Query A64C A69U next
zone 1

Query G8A G125U next
zone 3

Query A77U U132C next
zone 3

Query C95U U134C next
zone 1

Query U73C C99U next
zone 3

Query U14A U108G next
zone 3

Query U1C A121G next
zone 2

Query G74A A79U next
zone 3

Query C19A next
zone 2

Query C19U U73C next
zone 2

Query U13G U46C next
zone 3

Query U20C A107U next
zone 3
